Target: rat adrenergic α1B receptor (Rattus norvegicus)
Construct: rat adrenergic α1B receptor obtained from Wistar Rat liver; from tissue; host or cells: Wistar rat liver
Sequence (P15823 whole entry): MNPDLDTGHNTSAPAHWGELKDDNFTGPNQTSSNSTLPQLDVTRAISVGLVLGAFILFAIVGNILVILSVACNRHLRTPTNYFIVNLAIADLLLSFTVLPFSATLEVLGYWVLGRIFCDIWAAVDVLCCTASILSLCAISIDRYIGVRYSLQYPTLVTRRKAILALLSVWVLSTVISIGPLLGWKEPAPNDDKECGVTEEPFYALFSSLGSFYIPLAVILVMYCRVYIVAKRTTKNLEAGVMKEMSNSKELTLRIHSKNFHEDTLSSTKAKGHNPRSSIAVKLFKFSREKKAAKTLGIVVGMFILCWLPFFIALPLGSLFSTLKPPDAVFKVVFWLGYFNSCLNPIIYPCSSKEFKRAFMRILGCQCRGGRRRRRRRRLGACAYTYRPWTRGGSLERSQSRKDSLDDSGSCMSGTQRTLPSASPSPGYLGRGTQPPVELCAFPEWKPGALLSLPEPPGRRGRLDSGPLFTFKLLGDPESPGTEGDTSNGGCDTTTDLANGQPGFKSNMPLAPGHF
Assay: Radioligand binding, adrenergic α1B receptor ([3H]Prazosin)
Settings: 0.1 μM compound, Wistar rat liver, read-out: Percentage inhibition of ligand binding, Adrenergic α1B
Method: To evaluate in radioligand binding assays the activity of compounds, rat adrenergic α1B receptor obtained from Wistar Rat liver (Garcia-S' ainz, J. et al, Biochem. Biophys. Res. Commun. 186:760, 1992; Michel, A. et al, Br. J. Pharmacol. 98:883, 1989) in a modified Tris-HCl buffer (50 mM Tris-HCl buffer, pH 7.4, 0.5 mM EDTA) was used. […] Receptor proteins were filtered and washed, the filters were then counted to determine [^3H]Prazosin specifically bound. […]
Result Type: inhibition at 0.1 µM (%)
Report only the number, with the unit % understood.

Here are 5 molecules together with their reported answers.
>  <Smiles Code>
Cc1ccc2c(c1)c1c(n2-c2ccc(-c3ccncc3)cn2)CCN(C)C1

>  <Study Target>
rat adrenergic α1B receptor (Rattus norvegicus)

>  <inhibition at 0.1 µM / %>
33

$$$$
>  <Smiles Code>
Cc1ccc2c(c1)c1c(n2-c2cccc(-c3c(C)noc3C)c2)CCN(C)C1

>  <Study Target>
rat adrenergic α1B receptor (Rattus norvegicus)

>  <inhibition at 0.1 µM / %>
14

$$$$
>  <Smiles Code>
Cc1ccc2c(c1)c1c(n2-c2ccccc2-c2ccc(C)s2)CCN(C)C1

>  <Study Target>
rat adrenergic α1B receptor (Rattus norvegicus)

>  <inhibition at 0.1 µM / %>
37

$$$$
>  <Smiles Code>
Cc1csc(-c2ccc(-n3c4c(c5cc(C)ccc53)CN(C)CC4)nc2)c1

>  <Study Target>
rat adrenergic α1B receptor (Rattus norvegicus)

>  <inhibition at 0.1 µM / %>
68

$$$$
>  <Smiles Code>
Cc1ccc2c(c1)c1c(n2-c2ccoc2)CCN(C)C1

>  <Study Target>
rat adrenergic α1B receptor (Rattus norvegicus)

>  <inhibition at 0.1 µM / %>
35

$$$$

Query molecule follows.
Input: State, in one line, measured inhibition at 0.1 µM of "Cc1ccc2c(c1)c1c(n2-c2cccc(-c3sccc3C)c2)CCN(C)C1"
Output: 9

---

biological target: human recombinant adrenergic α2A receptor (Homo sapiens); construct: expressed in transfected cells; host or cells: insect Sf9 cells; test: Radioligand binding, adrenergic α2A receptor ([3H]MK-912); settings: 0.1 μM compound; Sf9 cells; 1 nM [3H]MK-912; read-out: Percentage inhibition of ligand binding, Adrenergic α2A
Sequence (P08913 whole entry): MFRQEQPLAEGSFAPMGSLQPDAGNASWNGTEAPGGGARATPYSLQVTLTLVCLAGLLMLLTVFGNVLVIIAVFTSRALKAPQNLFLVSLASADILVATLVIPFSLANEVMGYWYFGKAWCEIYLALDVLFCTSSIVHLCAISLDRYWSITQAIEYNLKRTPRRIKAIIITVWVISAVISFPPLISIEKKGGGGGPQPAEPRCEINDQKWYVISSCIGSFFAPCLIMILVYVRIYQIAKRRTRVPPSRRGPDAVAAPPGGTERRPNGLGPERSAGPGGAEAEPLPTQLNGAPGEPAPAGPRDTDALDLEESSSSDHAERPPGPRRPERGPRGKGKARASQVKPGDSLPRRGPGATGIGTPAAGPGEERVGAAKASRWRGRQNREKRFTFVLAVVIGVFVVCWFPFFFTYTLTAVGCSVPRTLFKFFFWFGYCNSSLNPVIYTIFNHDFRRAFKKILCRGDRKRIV
Entries are sorted into classes by inhibition at 0.1 µM as follows: L: < 10%; M: ≥ 10% and < 40%; H: ≥ 40%

>  <Molecule>
Cc1ccc2c(c1)c1c(n2-c2cscc2-c2cnc(N(C)C)nc2)CCN(C)C1 [Compound 40]

>  <Study Target>
human recombinant adrenergic α2A receptor (Homo sapiens)

>  <Class Label>
H

$$$$
>  <Molecule>
CNC(=O)c1ccc(-c2cscc2-n2c3c(c4cc(C)ccc42)CN(C)CC3)cn1 [Compound No. 73]

>  <Study Target>
human recombinant adrenergic α2A receptor (Homo sapiens)

>  <Class Label>
M

$$$$
>  <Molecule>
Cc1ccc2c(c1)c1c(n2-c2ccccc2-c2ccc(F)cc2)CCN(C)C1 [Compound 10]

>  <Study Target>
human recombinant adrenergic α2A receptor (Homo sapiens)

>  <Class Label>
H

$$$$
>  <Molecule>
CC(=O)Nc1ccc(-c2cscc2-n2c3c(c4cc(C)ccc42)CN(C)CC3)cn1 [Compound 56]

>  <Study Target>
human recombinant adrenergic α2A receptor (Homo sapiens)

>  <Class Label>
L

$$$$
>  <Molecule>
Cc1ccc2c(c1)c1c(n2-c2cccc(-c3c(C)noc3C)c2)CCN(C)C1 [Compound No. 65]

>  <Study Target>
human recombinant adrenergic α2A receptor (Homo sapiens)

>  <Class Label>
M

$$$$

Input: Which bin should I file CNC(=O)c1ccc(-c2ccccc2-n2c3c(c4cc(C)ccc42)CN(C)CC3)cc1 [Compound No. 72] under?
Output: L

Input: Which bin should I file Cc1ccc2c(c1)c1c(n2-c2cnc3c(c2)CCCC3)CCN(C)C1 [Compound No. 153] under?
Output: L

Input: Which bin should I file Cc1ccc2c(c1)c1c(n2-c2cscc2C(=O)N(C)C)CCN(C)C1 [Compound No. 152] under?
Output: L

Input: Which bin should I file Cc1ccc2c(c1)c1c(n2-c2ccc(-c3c(C)noc3C)cn2)CCN(C)C1 [Compound No. 137] under?
Output: H

Input: Which bin should I file Cc1ccc2c(c1)c1c(n2-c2cccc(-c3ccc(C)s3)c2)CCN(C)C1 [Compound No. 64] under?
Output: M

Input: Which bin should I file Cc1ccc2c(c1)c1c(n2-c2ccccc2-c2cccc3[nH]ncc23)CCN(C)C1 [Compound No. 105] under?
Output: H

Input: Which bin should I file Cc1ccc2c(c1)c1c(n2-c2cnc3ccccc3c2)CCN(C)C1 [Compound No. 88] under?
Output: M
